test system: MCF-7 cell line; assay: Cytotoxic activity; assay type: cell-based; conditions: Vero / MCF-7
observation_type: SI (Selectivity index = LC50 value normal cell/LC50 value cancer cell)
Lab note: write the figure by itself, no unit.

Please supply the value of reported SI (Selectivity index = LC50 value normal cell/LC50 value cancer cell) for the item COc1cccc2c1C(=O)c1c(O)c3c(c(O)c1C2=O)C[C@@](O)(C(=O)CO)C[C@@H]3O[C@H]1C[C@H](N)[C@H](O)[C@H](C)O1 [Doxorubicin, doxorubicin, reference compound]
32.38

Tell us which SI (Selectivity index = LC50 value normal cell/LC50 value cancer cell) value is on record for Cc1nn(-c2ccccc2)c2c1C(c1ccc(N(C)C)cc1)N(C(=O)c1ccncc1)N2 (centres unmarked)
4.12

Supply SI (Selectivity index = LC50 value normal cell/LC50 value cancer cell) value. Item: Cc1nn(-c2ccccc2)c2c1C(c1cncs1)N(C(=O)c1ccncc1)N2 (centres unmarked)
1.25

Read off the recorded SI (Selectivity index = LC50 value normal cell/LC50 value cancer cell) for Cc1nn(-c2ccccc2)c2c1C(c1ccc([N+](=O)[O-])cc1)N(C(=O)c1ccncc1)N2 (centres unmarked)
0.91

Give SI (Selectivity index = LC50 value normal cell/LC50 value cancer cell) for the following compound: COc1ccc(C2c3c(C)nn(-c4ccccc4)c3NN2C(=O)c2ccncc2)cc1 (centres unmarked)
3.36

Provide measured SI (Selectivity index = LC50 value normal cell/LC50 value cancer cell) value, entry: Cc1nn(-c2ccccc2)c2c1C(c1ccc(Cl)cc1)N(C(=O)c1ccncc1)N2 (centres unmarked)
2.95

Give reported SI (Selectivity index = LC50 value normal cell/LC50 value cancer cell) value for Cc1nn(-c2ccccc2)c2c1C(c1ccc(O)cc1)N(C(=O)c1ccncc1)N2 (centres unmarked)
1.05

Entry Cc1nn(-c2ccccc2)c2c1C(c1ccccn1)N(C(=O)c1ccncc1)N2 (centres unmarked) needs its SI (Selectivity index = LC50 value normal cell/LC50 value cancer cell) filled in; supply it.
1.45

---

system: MCF-7 cell line; test: Cytotoxic activity; type: cell-based; details: Homo sapiens, MCF7, read-out: LC50, MCF-7 cell line
I'd appreciate it if you could supply CC50 values for the items below.
Give just the numeric value; µg/mL need not be written.

Quickly give me recorded CC50 for Cc1nn(-c2ccccc2)c2c1C(c1c[nH]c3ccccc13)N(C(=O)c1ccncc1)N2 (stereo not shown) [Compound 1h]
21.4

Query CC50 for Cc1nn(-c2ccccc2)c2c1C(c1cncs1)N(C(=O)c1ccncc1)N2 (stereo not shown) [Compound 1k]
62.3

Answer with reported CC50 of Cc1nn(-c2ccccc2)c2c1C(c1ccco1)N(C(=O)c1ccncc1)N2 (stereo not shown) [Compound 1i]
26.7

Provide measured CC50 value, entry: Cc1nn(-c2ccccc2)c2c1C(c1ccc(Cl)cc1)N(C(=O)c1ccncc1)N2 (stereo not shown) [Compound 1b]
22.1

---

tested on: MCF-7 cell line; assay: Cytotoxic activity; type: cell-based; conditions: Homo sapiens, MCF7, read-out: LC50, MCF-7 cell line
Could you please report measured CC50 for the items listed next?
Please respond with the number in µg/mL and leave the unit unwritten.

Provide MCF-7 cell line CC50 reading for Cc1nn(-c2ccccc2)c2c1C(c1ccc([N+](=O)[O-])cc1)N(C(=O)c1ccncc1)N2 (stereo not shown) .
91.1

# lookup: MCF-7 cell line CC50, key = Cc1nn(-c2ccccc2)c2c1C(c1ccccn1)N(C(=O)c1ccncc1)N2 (stereo not shown)
57.3

Retrieve CC50 on MCF-7 cell line; query Cc1nn(-c2ccccc2)c2c1C(c1ccc(O)cc1)N(C(=O)c1ccncc1)N2 (stereo not shown)
70.1

Check MCF-7 cell line data and give CC50 for CC(C)=CCCC(C)=CC1c2c(C)nn(-c3ccccc3)c2NN1C(=O)c1ccncc1 (stereo not shown) .
30.8

For MCF-7 cell line, give CC50 of the listed compound: COc1cccc2c1C(=O)c1c(O)c3c(c(O)c1C2=O)C[C@@](O)(C(=O)CO)C[C@@H]3O[C@H]1C[C@H](N)[C@H](O)[C@H](C)O1 [Doxorubicin, doxorubicin, reference compound]
0.65

Retrieve CC50 on MCF-7 cell line; query COc1ccc(C2c3c(C)nn(-c4ccccc4)c3NN2C(=O)c2ccncc2)cc1 (stereo not shown)
23.6

Determine reported CC50 for Cc1nn(-c2ccccc2)c2c1C(c1ccc(N(C)C)cc1)N(C(=O)c1ccncc1)N2 (stereo not shown) ; test system: MCF-7 cell line.
19.9
